study-system: sodium-coupled high-affinity choline transporter CHT1 (Homo sapiens, UniProt Q9GZV3)
Construct: Full-length human CHT1 (NP_068587.1) with a C-terminal Strep-tag
Sequence (Q9GZV3 whole entry): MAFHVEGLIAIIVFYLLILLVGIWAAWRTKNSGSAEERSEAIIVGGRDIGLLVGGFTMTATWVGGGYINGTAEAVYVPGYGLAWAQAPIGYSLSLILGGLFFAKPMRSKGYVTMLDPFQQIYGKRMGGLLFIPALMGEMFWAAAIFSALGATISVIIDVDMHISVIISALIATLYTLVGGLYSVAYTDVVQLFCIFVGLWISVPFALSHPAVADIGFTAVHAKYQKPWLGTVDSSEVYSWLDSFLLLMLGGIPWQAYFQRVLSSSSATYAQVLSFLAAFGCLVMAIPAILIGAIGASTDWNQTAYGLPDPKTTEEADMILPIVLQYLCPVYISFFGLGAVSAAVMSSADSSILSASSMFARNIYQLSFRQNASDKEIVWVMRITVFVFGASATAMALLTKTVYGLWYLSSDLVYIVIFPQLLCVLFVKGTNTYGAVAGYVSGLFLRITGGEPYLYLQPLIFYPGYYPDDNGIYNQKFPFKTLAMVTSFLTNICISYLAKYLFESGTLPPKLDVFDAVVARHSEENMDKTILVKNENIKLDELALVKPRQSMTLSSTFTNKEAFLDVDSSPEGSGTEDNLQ
experiment-summary: cryo-EM structure at […] Å; [3H]-choline uptake inhibition in CHT1-expressing HEK293 cells
measured-parameter: IC50 (nM)
Return type: number; implicit unit nM.

What value of IC50 has been recorded for this entry: C[N+]1(C)CCOC(O)(c2ccc(-c3ccc(C4(O)C[N+](C)(C)CCO4)cc3)cc2)C1 (stereo not shown)
4.98
